B1: Cyclin-F, residues 28 to 80; numbered along this chain, P41002 (parent)
chain: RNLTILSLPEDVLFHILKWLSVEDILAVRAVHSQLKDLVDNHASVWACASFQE

- Variants of: B1
- test protocol: abundance fitness (aPCA) (normalised: wild type 0, dead -1); higher = more abundant; growth selection in yeast, the domain comes from the species named
- settings: Homo sapiens
param class (str): category from abundance fitness; see ranges lower band: < -0.6; central band: ≥ -0.6 and < -0.1; upper band: ≥ -0.1

See these solved cases before continuing.
{"columns": ["variant annotation", "discrete label"],
 "data": [
  ["A27F", "lower band"],
  ["D40H", "central band"],
  ["H15N", "upper band"],
  ["Q34I", "central band"],
  ["S7Y", "lower band"],
  ["Q34R", "upper band"],
  ["F14L", "upper band"],
  ["A43R", "central band"],
  ["V22Q", "central band"],
  ["L35I", "central band"]
]}

[ask] Which abundance fitness category applies to "L38F" here?
[reply] upper band

[ask] Which abundance fitness category applies to "V45S" here?
[reply] upper band
